Values were extracted from ChEMBL document CHEMBL4190291.

Experimental System: Inhibitor of nuclear factor kappa-B kinase subunit alpha (Homo sapiens) (UniProt O15111)
Sequence (O15111 whole entry): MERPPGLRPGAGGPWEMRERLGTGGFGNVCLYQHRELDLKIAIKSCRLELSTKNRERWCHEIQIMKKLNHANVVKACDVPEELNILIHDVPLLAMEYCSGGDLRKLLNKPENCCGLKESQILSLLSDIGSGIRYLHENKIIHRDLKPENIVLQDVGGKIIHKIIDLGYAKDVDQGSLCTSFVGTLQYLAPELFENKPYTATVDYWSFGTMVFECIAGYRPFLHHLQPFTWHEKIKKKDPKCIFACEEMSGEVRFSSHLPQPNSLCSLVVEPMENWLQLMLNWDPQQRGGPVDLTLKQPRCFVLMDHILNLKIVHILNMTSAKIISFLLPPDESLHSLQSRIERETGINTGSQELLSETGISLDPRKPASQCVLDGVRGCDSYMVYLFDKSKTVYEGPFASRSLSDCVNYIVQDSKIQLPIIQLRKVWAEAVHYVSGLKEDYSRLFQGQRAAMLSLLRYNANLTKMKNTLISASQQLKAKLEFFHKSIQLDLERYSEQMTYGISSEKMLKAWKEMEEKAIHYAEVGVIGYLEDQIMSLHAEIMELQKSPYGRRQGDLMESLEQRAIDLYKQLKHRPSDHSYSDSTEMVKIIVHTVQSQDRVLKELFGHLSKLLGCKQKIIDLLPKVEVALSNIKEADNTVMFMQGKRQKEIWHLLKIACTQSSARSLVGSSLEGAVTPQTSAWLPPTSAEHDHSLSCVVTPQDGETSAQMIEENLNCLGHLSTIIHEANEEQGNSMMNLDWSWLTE
Method Notes: Inhibition of full length human His-tagged IKK1 expressed in baculovirus expression system at 10 uM by Z'-LYTE assay
Value Kind: inhibition (%)
Answer format: numeric, % implied, no suffix.

{"Smiles Notation": "COc1ccc(-c2cnc3c(N)nccn23)cc1OC", "Experimental System": "Inhibitor of nuclear factor kappa-B kinase subunit alpha (Homo sapiens) (UniProt O15111)", "Data Value": -2}
{"Smiles Notation": "CNc1nc2ccccc2n2cncc12", "Experimental System": "Inhibitor of nuclear factor kappa-B kinase subunit alpha (Homo sapiens) (UniProt O15111)", "Data Value": 3}
{"Smiles Notation": "CNc1nc2ccc(C)cc2n2nccc12", "Experimental System": "Inhibitor of nuclear factor kappa-B kinase subunit alpha (Homo sapiens) (UniProt O15111)", "Data Value": -9}

Form entry - test system: Inhibitor of nuclear factor kappa-B kinase subunit alpha (Homo sapiens) (UniProt O15111); read-out: inhibition; compound: CNc1nc2ccccc2n2nccc12
5

Form entry - test system: Inhibitor of nuclear factor kappa-B kinase subunit alpha (Homo sapiens) (UniProt O15111); read-out: inhibition; compound: Cc1ccc2c(c1)nc(N(C)C)c1ccnn12
-7

Form entry - test system: Inhibitor of nuclear factor kappa-B kinase subunit alpha (Homo sapiens) (UniProt O15111); read-out: inhibition; compound: CNc1nc2cc(C)ccc2n2nccc12
-4

Form entry - test system: Inhibitor of nuclear factor kappa-B kinase subunit alpha (Homo sapiens) (UniProt O15111); read-out: inhibition; compound: CNc1nccn2c(Br)cnc12
5

Form entry - test system: Inhibitor of nuclear factor kappa-B kinase subunit alpha (Homo sapiens) (UniProt O15111); read-out: inhibition; compound: CNc1nc2ccc(C)cc2n2ncc(Br)c12
-10

Form entry - test system: Inhibitor of nuclear factor kappa-B kinase subunit alpha (Homo sapiens) (UniProt O15111); read-out: inhibition; compound: CN(C)c1nc2ccccc2n2nccc12
-10

Form entry - test system: Inhibitor of nuclear factor kappa-B kinase subunit alpha (Homo sapiens) (UniProt O15111); read-out: inhibition; compound: Nc1nccn2c(-c3ccc(O)c(O)c3)cnc12
20

Form entry - test system: Inhibitor of nuclear factor kappa-B kinase subunit alpha (Homo sapiens) (UniProt O15111); read-out: inhibition; compound: CNc1nccn2c(-c3ccc(O)c(O)c3)cnc12
5

Form entry - test system: Inhibitor of nuclear factor kappa-B kinase subunit alpha (Homo sapiens) (UniProt O15111); read-out: inhibition; compound: CNc1nc2ccccc2n2c(Br)ncc12
0
